Provenance of the data: patent US4906666A

Test system: passively sensitized strip of pulmonary parenchyma (guinea pig)
Experiment: Inhibition of the antigen-induced constriction on the passively sensitized strip of pulmonary parenchyma, Superfusion
Type: cell-based
Conditions: Cavia porcellus, concentration 20 μM
attribute.measured: inhibition at 20 µM (%)
Kindly provide the numeric value in % only, without the unit symbol.

Consider the reported inhibition at 20 µM for these molecules:
1. CCCCCC(O)c1cccc(OCC(O)CSCCCC(=O)N(C)O)c1 (stereo not shown) [Example 2m] :: 29
2. CCCc1c(OCCCSCCC(=O)N(C)O)ccc(C(C)=O)c1O [Example 2i] :: 63
3. CCCCCC(O)c1cccc(OCCCSCCCC(=O)NO)c1 (stereo not shown) [Example 9a] :: 11
4. CCCCCc1cccc(OCCCSCCC(=O)N(C)O)c1 [Example 2b] :: 58
5. CCCc1c(OCCCSCCc2nn[nH]n2)ccc(C(C)=O)c1O [Example 6b] :: 55

Just so you know, measured inhibition at 20 µM for CCCCCC(O)c1cccc(OCCCCSCCC(=O)Nc2nn[nH]n2)c1 (stereo not shown) [Example 4e] came out at 73

Just so you know, measured inhibition at 20 µM for CCCCCC(O)c1cccc(OCCCCSCCC(=O)NO)c1 (stereo not shown) [Example 9c] came out at 27
